targetEntity: Ephrin type-A receptor 1 (Homo sapiens)
Sequence (P21709 whole entry): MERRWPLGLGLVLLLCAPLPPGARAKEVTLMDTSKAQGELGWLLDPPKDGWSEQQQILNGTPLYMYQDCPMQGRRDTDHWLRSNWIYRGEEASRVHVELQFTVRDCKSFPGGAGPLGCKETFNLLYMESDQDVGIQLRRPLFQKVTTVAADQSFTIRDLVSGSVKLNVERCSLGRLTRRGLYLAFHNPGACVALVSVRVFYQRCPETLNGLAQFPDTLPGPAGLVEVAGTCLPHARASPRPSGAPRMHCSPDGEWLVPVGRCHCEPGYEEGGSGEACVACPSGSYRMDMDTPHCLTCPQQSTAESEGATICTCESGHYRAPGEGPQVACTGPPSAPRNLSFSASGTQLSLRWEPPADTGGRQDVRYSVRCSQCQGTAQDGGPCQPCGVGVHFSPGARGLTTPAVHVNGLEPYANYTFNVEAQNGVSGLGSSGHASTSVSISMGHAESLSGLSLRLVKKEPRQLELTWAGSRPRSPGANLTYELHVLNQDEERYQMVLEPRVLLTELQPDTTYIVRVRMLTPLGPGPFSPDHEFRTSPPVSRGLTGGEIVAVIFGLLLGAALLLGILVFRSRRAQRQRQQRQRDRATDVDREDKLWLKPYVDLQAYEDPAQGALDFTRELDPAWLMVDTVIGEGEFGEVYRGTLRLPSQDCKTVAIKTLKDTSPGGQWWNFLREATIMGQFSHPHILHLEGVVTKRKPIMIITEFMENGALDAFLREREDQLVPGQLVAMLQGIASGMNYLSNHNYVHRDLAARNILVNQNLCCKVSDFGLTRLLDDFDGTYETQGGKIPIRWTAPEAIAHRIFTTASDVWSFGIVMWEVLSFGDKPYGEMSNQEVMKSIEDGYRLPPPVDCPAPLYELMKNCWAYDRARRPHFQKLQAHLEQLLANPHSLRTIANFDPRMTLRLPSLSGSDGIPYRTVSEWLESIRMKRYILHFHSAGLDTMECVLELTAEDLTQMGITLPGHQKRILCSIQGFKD
quantityKind: pIC50
As a rule, pIC50 stands for the negative log10 of the concentration, concentration in M.

# input compound: `CN1C(=O)[C@@H](N2CCc3c(nn(Cc4ccccc4)c3Br)C2=O)COc2ccccc21` ; wanted: its pIC50 6.00

----------
targetEntity: Serine/threonine-protein kinase pim-1 (Homo sapiens, UniProt P11309)
Sequence (P11309 whole entry): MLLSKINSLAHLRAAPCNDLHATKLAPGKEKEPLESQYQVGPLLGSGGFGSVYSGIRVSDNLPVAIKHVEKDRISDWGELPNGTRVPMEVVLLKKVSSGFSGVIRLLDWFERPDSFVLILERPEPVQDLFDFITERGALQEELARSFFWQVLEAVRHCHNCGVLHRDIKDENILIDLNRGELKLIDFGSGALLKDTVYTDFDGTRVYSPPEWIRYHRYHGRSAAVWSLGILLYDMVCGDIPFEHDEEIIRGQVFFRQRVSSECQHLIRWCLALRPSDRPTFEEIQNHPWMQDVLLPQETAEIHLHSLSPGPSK
procedureSummary: Pim1(PIM1LGP1) Takeda global kinase panel
quantityKind: pIC50
Please keep in mind that pIC50 is minus log10 of the molar concentration; only the number is needed.

Would you mind telling me what pIC50 value was observed for CN1C(=O)[C@@H](N2CCc3c(nn(Cc4ccccc4)c3Br)C2=O)COc2ccccc21 [TP-030-2] ? 6.00

All values here come from ChEMBL document CHEMBL4507326.
